Kindly state pKi for each of the entries shown.
target_desc: JAK1 (Homo sapiens)
Construct: made in house; host or cells: SF9 insect cells (baculovirus)
test_method_notes: JAK1 inhibition (Table 4)
Format: biochemical
condition_set: read-out: JAK1 Ki
Note: pKi values are expressed as the negative base-10 logarithm of concentration in M.

Inquiry: Lookup: pKi / JAK1 (Homo sapiens) / N#CCCN1[C@@H]2CC[C@H]1C[C@H](n1cnc3cnc4[nH]ccc4c31)C2
Reply text: 8.69

Inquiry: And the next one, O=S(=O)(N1CCC(n2cnc3cnc4[nH]ccc4c32)CC1)C(F)(F)F ?
Reply text: 7.97

Inquiry: How about O=C(CCC(F)(F)F)NC1CCC(n2cnc3cnc4[nH]ccc4c32)C1 (racemic) ?
Reply text: 8.55

Inquiry: Here is the next molecule: C[C@@H](O)c1nc2cnc3[nH]ccc3c2n1C1CCN(C2COC2)CC1
Reply text: 7.26

Inquiry: Another molecule: CC(C)CC(=O)NCCc1nc2cnc3[nH]ccc3c2n1C1CCN(CCC#N)CC1
Reply text: 8.38

Inquiry: Next up: CC(C)(C)COCc1nc2cnc3[nH]ccc3c2n1C1CCN(CCC#N)CC1
Reply text: 6.79

Inquiry: Try O=C(NCCc1nc2cnc3[nH]ccc3c2n1[C@@H]1CCCOC1)C1CC1 next.
Reply text: 7.17

Inquiry: Next entry: CC(O)c1nc2cnc3[nH]ccc3c2n1C1CC2CCC1O2 (single isomer, unassigned) [Example 907]
Reply text: 7.62

Inquiry: How about this molecule: C[C@@H](O)c1nc2cnc3[nH]ccc3c2n1C1CCN(CC(=O)N2CCCC2)CC1
Reply text: 6.79

Inquiry: Here is the next molecule: N#CCCNC1CCC(n2cnc3cnc4[nH]ccc4c32)C1 (racemic)
Reply text: 8.11

Inquiry: Record: COC(=O)CC(c1cccnc1)N1CCC(n2cnc3cnc4[nH]ccc4c32)CC1 (racemic)
Reply text: 7.81

Inquiry: Also check O=S(=O)(C1CC1)N1CCC(n2cnc3cnc4[nH]ccc4c32)CC1
Reply text: 8.46

Inquiry: Would you kindly repeat that for N#Cc1cccc(CN2CCC[C@@H](n3cnc4cnc5[nH]ccc5c43)C2)c1 ?
Reply text: 8.12

Inquiry: Another molecule: COC1CCCC(n2c(C)nc3cnc4[nH]ccc4c32)C1 (stereo not shown)
Reply text: 7.44

Inquiry: Field entry: N#Cc1cccc(CNC2CC(n3cnc4cnc5[nH]ccc5c43)C2)c1 (stereo not shown)
Reply text: 7.78

Inquiry: Another: Cc1cc(CN2CCC(n3c(C(C)O)nc4cnc5[nH]ccc5c43)C(F)C2)no1 (stereo not shown)
Reply text: 8.48

----------
Give measured log10(Ki) for each item. Keep answers brief.
target_desc: JAK1 (Homo sapiens, UniProt P23458)
Construct: made in house; host or cells: SF9 insect cells (baculovirus)
Sequence (P23458 852-1154): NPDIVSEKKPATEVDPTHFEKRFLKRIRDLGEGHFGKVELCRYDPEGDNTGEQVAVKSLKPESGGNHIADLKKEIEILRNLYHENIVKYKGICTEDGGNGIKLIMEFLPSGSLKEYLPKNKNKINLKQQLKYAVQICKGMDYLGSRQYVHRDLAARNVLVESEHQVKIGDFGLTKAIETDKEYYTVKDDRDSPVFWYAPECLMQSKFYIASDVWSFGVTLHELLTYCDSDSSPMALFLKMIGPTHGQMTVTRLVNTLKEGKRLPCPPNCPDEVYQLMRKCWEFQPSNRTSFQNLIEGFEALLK
test_method_notes: JAK1 inhibition (Table 4)
Format: biochemical
condition_set: read-out: JAK1 Ki
Could you please treat all values as log10 of Ki in nM?

Inquiry: I'm curious: which log10(Ki) was measured for CC(C)(C)OC(=O)NC1CCCC(n2cnc3cnc4[nH]ccc4c32)C1 (single isomer, unassigned) [Example 476] tested on JAK1 (Homo sapiens, UniProt P23458)?
Reply text: 1.09

Inquiry: Please do the same for O=C(Cc1nc2cnc3[nH]ccc3c2n1C1CCCOC1)NC1CCOCC1 (racemic) [Example 983] as well.
Reply text: 1.58

Inquiry: O=S(=O)(C1CC1)N1CCC[C@@H](n2cnc3cnc4[nH]ccc4c32)C1 [Example 70] ?
Reply text: 1.10

Inquiry: Okay, and N#CCC[C@H]1CC[C@H](n2c(CO)nc3cnc4[nH]ccc4c32)CC1 [Example 646] ?
Reply text: -0.28

Inquiry: Can you check CCN1CCC(n2c(CCNS(C)(=O)=O)nc3cnc4[nH]ccc4c32)C(F)(F)C1 (single isomer, unassigned) [Example 805] next?
Reply text: 0.45

Inquiry: Repeat with Cc1nc2cnc3[nH]ccc3c2n1[C@@H]1C[C@@H]2CC[C@H]1O2 (relative stereo) [Example 684]
Reply text: 0.88

Inquiry: Next record, please: CCCc1nc2cnc3[nH]ccc3c2n1C1CCN(CCC#N)CC1 [Example 120]
Reply text: 0.75

Inquiry: // same read-out, input: CCN1CC[C@@H](n2c(CCNC(C)=O)nc3cnc4[nH]ccc4c32)[C@@H](F)C1 [Example 811]
Reply text: 0.83

Inquiry: Record: CC(C)(C)OC(=O)N1CCC[C@H]1C(=O)N1CCC(n2cnc3cnc4[nH]ccc4c32)CC1 [Example 144]
Reply text: 2.40

Inquiry: Consider next the compound COCCNC(=O)N(C)[C@H]1CC[C@H](n2cnc3cnc4[nH]ccc4c32)CC1 [Example 592] in the same way.
Reply text: 1.08

Inquiry: Now try O=C(c1cccnc1)N1CCC[C@@H](n2cnc3cnc4[nH]ccc4c32)C1 [Example 31] .
Reply text: 1.12

Inquiry: Similarly, C[C@@H](O)c1nc2cnc3[nH]ccc3c2n1[C@H]1CC[C@H](N(C)CC(F)(F)F)CC1 [Example 617] ?
Reply text: 1.08

Inquiry: Moving on to C[C@]1(O)CC[C@H](n2nnc3cnc4[nH]ccc4c32)CC1 [Example 713]
Reply text: 0.91

Inquiry: Now consider O=C([C@@H]1CC(F)(F)CN1)N1CCC(n2cnc3cnc4[nH]ccc4c32)CC1 [Example 250] and answer again.
Reply text: 1.46

Inquiry: // query: N#CCCn1ncc2c1CC[C@H](n1cnc3cnc4[nH]ccc4c31)C2 [Example 959]
Reply text: 0.67

Inquiry: Now give it for CS(=O)(=O)NCc1nc2cnc3[nH]ccc3c2n1C1CC2CCC1O2 (single isomer, unassigned) [Example 849] too.
Reply text: 1.71

Inquiry: Then COC(=O)N(C)[C@H]1CC[C@H](n2c(CO)nc3cnc4[nH]ccc4c32)CC1 [Example 606] ?
Reply text: 1.46

Inquiry: Okay, and CC(=O)N(C)CCc1nc2cnc3[nH]ccc3c2n1C1CCN(CCC#N)CC1 [Example 387] ?
Reply text: 1.19

Inquiry: Let us now turn to O=C(CN1CCC[C@@H](n2cnc3cnc4[nH]ccc4c32)C1)c1ccccc1 [Example 225]
Reply text: 1.78

Inquiry: And then c1cc2c(ncc3ncn(C4CCCOC4)c32)[nH]1 (single isomer, unassigned) [Example 466] , what is it?
Reply text: 0.98

Inquiry: Now the same for C[C@@H](N)c1nc2cnc3[nH]ccc3c2n1C1CCCOC1 (single isomer, unassigned) [Example 669]
Reply text: 2.14

Inquiry: Proceed to CCOC(=O)N1CCC(n2c([C@@H](C)O)nc3cnc4[nH]ccc4c32)CC1 [Example 927]
Reply text: 2.25
